Test: Cytotoxicity against MDCK cells assessed as cell morphology by microscopical examination
Assay type: cell-based, Canis lupus familiaris
Conditions: dog
Entries and their MCC values follow.

# molecule, MCC
records = [
    ("CC1CC23CNCC2(C1)CC(C)C3 (configuration not stated)", "> 100 µM"),
    ("C=C1CC23CNCC2(C1)CC(=C)C3 (configuration not stated)", "> 100 µM"),
    ("N=C(N)N1CC23CCCC2(CCC3)C1 (configuration not stated)", "54 µM"),
    ("C1=CC[C@]23CCC[C@@]2(C1)CNC3", "> 100 µM"),
    ("C1=CC[C@]23CC=CC[C@@]2(C1)CNC3", "> 100 µM"),
    ("C1CC[C@]23CCCC[C@@]2(C1)CNC3", "> 100 µM"),
    ("C=C1CC23CCCC2(CNC3)C1 (configuration not stated)", "> 100 µM"),
]
